The measurements presented in this section are drawn from the nanobody polyreactivity screen of Harvey et al. (2022).

Test: yeast display, Sf9 membrane polyspecificity reagent, FACS + sequencing; frameworks hold sequencing errors
EXPERIMENTAL READOUT: polyreactivity (PSR sort gate)

| RESIDUE STRING | MEASURED RESULT |
| --- | --- |
| QVQLVESGGGLVQAGGSLRLSCAASGRIFFRNAMGWYRQAPGKERELVAAITYSGGSTYYADSVKGRFTISRDNAKNTVYFQMNSLKPEDTAVYYCYADYYPYGEYDYWGQGTQVTVSS | high polyreactivity |
| QVQLVESGGGLVQAGGSLRLSCAASGLTFLYYAMGWYRQAPGKERELVAAITGSGGTTNYADSVKGRFTISRDNAKNTVYLQMNSLKPEDTAVYYCAARGRKYYTSLGYYYWGQGTQVTVSS | high polyreactivity |
| QVQLVESGGGLVQAGGSLRLSCAASGSIFNWYAMGWYTQAPGKERELVAAISWRCGSTYYADSVKGRFTISRDNAKITVYLQMNSLKPEDTAVYYCAADGGADHMDYWGQGTQVTVSS | high polyreactivity |
| QVQLVESGGGLVQAGGSLRLSCAASGSTLAFYAMGWYRQATGKQRELVAAISRSGGRTYYSDSVKGRFTISRDNAKNTVYLQMNSLKPEDTAVYYCAAYWYYYWWYDYWGQGTQVTVSS | high polyreactivity |
| QVQLVESGGGLVQAGGSLRLSCPASGSTFRYYAMGWYRPAPGKERELVAGISSSGGSTYYADSVKGRFTISRDNAKNTVYLQMNSLKPEDTAVYYCNAARGTSRSWAVFADYDYWGQGSQVTVSS | high polyreactivity |
| QVQLVESGGGLVQAGGSLRLSCAASGSIFARYALGWYRQAPGKERELVDAITRSGVSTYSADSVKGRFTISRDNAKNTVYLQMNSLKPEDTAVYYCNADYPIRSSPYGYYYWGQGTQVTVSS | high polyreactivity |
| PVQLVESGGGLVQAGGSLRISCAASGRSFYVYAMGWYRQAPGKEREFVARITSNGGSPTYADSVKGRFTISRDKAKNTVYLQMNSLKPEDTAVYYCNADDGIHPNASPSFPQYDYWGPGTQVTVSS | low polyreactivity |
| QVQLVESGGGLVQAGGSLRLSCAASGFTFYRYAMGWYRQAPGKERELVAAISRGGSTNYADSVKGRFTISRDNAKNTVYLQMNSLKPEDTAVYYCNTRYVKGFYWGQGTQVTVSS | high polyreactivity |
| QVQLVESGGRLVQAGGSLRLSCAASGSIFFLYAKGWYRQAPGKERELVAAISGGGGSTYYADSVKGRFTISRDIAKYTVYLLMNSLKPEDTAVYYCAALSKTRGGFWGQGTQVTVSS | high polyreactivity |
| QVQLVESGGGLVQAGGSLRLSCAASGFIFPVYTKGWYRQAPGKERELVAAITQIGGSTHYADSVKGRFTISRDNAKNTVYLQMNSLKPEDTAVDYCNAVPSYGTEYDYWGQGTQVTVSS | low polyreactivity |
| QVQLVESGGGLVQAGGSLRLSCAASGFIFDQYAMGWYRQAPGKERELVATITSDGDTYYADSVKGRFTISRDNAKNTVYLQMNSLKPDDTAFYYFAVDPGPYTTGYEYWGQGTQLTVSS | low polyreactivity |
| QVQLVESGGGLVQAGGSLRLSCAASGSTFYVNTMGWYRQAPGKERELVAVISRTGTSTYYADSVKGRFTISRDNAKNTVYFQMNCLKPEDTAVYYCAKRPLPGRPNRSILQYYYWGQVTQVTVSS | high polyreactivity |
| QVQLVESGGGLVQAGGSLRLSCAASGRIFGYYAMGWYRQAPGKERELVAAINWRGGNTNYADSVKGRFTISRDNAKNTVYLQMNSLKPEDTSVYYCNAQVLVRPIQGEYGYWGQGTQVTVSS | low polyreactivity |
| QVQLVESGGGLVQAGGSLRLSCAASGSIFSYYAMGWYRQAPGKEREFVAAITKSGGSTYYADSVKGRFTISRDNAKNTVYLQMNSLKPEDTAVYYCAVRYKLYYYRYDYWGQGTQVTVSS | low polyreactivity |
| QVQLVESGGGLVQAGGSLRLSCAASGRTIYYYAMGWYRQAPGKEREFVAAISWHGGSTYYADSVKGRFTISRDNAKNTVYLQMNSLKPEDTAVYYCAADIYLRGFHYDYWGQGTQVTVSS | low polyreactivity |
| QVQLVESGGGLVQAGGSLRLSCAASGRNFSTYAMGWYRQAPWKERELVAAINKIGGSTYYADSVKGRFTISRDNAKNTVYLQMNILKPEDTAVYYCAADAPYYPVRRYYYWGQGTQVTVSS | low polyreactivity |
| QVHLVESGGGLVQAGGSLRLSCAASGRTFDRNAMGWYRQAPGKERELVAAISRNGGSTYYADSVKGRFTISRDNAKNTVYLQMNSLKPEDTAVYYCAAPRSVYDVARGDYWGQGTQVTVSS | high polyreactivity |
| QVQLVESGGGLVQAGGSLRLSCAASGSTFYYYAMGWYRQAPGKERELVAAITNVTSTYYADSVKGRFTISRDNAKNTVYLQMNSLKPEDTAGYYCAAPDPSTEVTYDYWGQGTQVTVSS | low polyreactivity |
| QVQLVESGGGLVQAGGSLRLSCAASGSSFKRYAMGWYRQAPGKERELVAAINWRGGRTYYADSVKGRFTISRDNAKNTVYLQMNSLKPEDTAVYYCNVVSNSYYYQHYYWGQGTQVTVSS | high polyreactivity |
| QVQLVESGGGLVQAGGSLRLSCADSGITFYEFGMGWYRQAPGKERELVAAITTDGRTNYADSVKGRFTISRDNATNTVYLQMNILKPEDTAVYYCAVVHYFWGFYSVDYWGQGTQETVSS | high polyreactivity |
| QVQLVESGGGLVQAGGSLRLSCAASGRTIRHNAMGWYRQARGKERELVGAISRSGGATYYADSVKGRFTISRDNAKNTVYLQMNSLKPEDTAVYYCAAGYHIIYTPEYYYWGQGTQVTVSS | high polyreactivity |

###

Experiment: yeast display, Sf9 membrane polyspecificity reagent, FACS + sequencing; frameworks hold sequencing errors

| RESIDUE STRING | polyreactivity (PSR sort gate) |
| --- | --- |
| QVQLVESGGGLVQAGGSLRLSCAASGSIFDYTAMGWYRQAPGKERELVASIRWSGGRTYYADSVKGRFTISRDNAKNTVYLQMNSLKPEDTAVYYCNRKPQEYVLQGSSNGYDYWGQGTQVTVSS | low polyreactivity |
| QVQLVESGGGLVQAGGSLRLSCAASGYIFGWYAMGWYRQAPGKERELLATIDWSGDSTYYADSVKGRFTISRDNAKNTVYLQMNSLKPEDTAVYYCAVGYVVDTWDEYDYWGQGTQVTVSS | low polyreactivity |
| QVQLVESGGGLVQAGGSLRLSCAASGSIFYVNAMGWNRQPPGKERELVAGITSGGRTNYADSVKGRFTISRDNAKNSVYLQMNSLKPEDTAVYYCATEIRITGLYRYDYWGQGTQVTVSS | low polyreactivity |
| QVQLVESGGGLVQAGGSLRLSCAASGRIFDYYAMGWYRQAPGKERELVAAISSSVGNTYYADSVKGRFTISRDNAKNTVYLQMNSLKPEDTAVYYCADYSYVRSSYEVEYDYWGQGTQVTVSS | low polyreactivity |
| QVQLVESGGGLVQAGGSLRLSCAASGFIYNKYTMGWYRQAPGKERELVAAIRSSGGSTYYADSVKGRFTISRDNAKNTVYLQMNSLKPEDTAVYYCNALPYQVWKRYSWGQGTQVTVSS | high polyreactivity |
| QVQLVESGGGLVQAGGSLRLSCAASGFTLSDYAMGGYRKAAGTERELVAGISSGGSTNYADSVKGRFTISRDNAKNTVYLQMNSLKPEDTAVYYCATRGTFQSHIRSGYWGQGTQVTVSS | high polyreactivity |
| QVHLVESGGGLVQAGGSLRLSCAASGRTLRSYAMGWYRQAPGKERELVAAINWRDTNTYYADSVKGRFTISRDNAKNTVYLQMNSLKPEDTAVYYCAARYYSRGWRYNYWGPGTQVTVSS | high polyreactivity |
| QVQLVESGGGLVQAGGSLRLSCAASGFTFVGYPLGWYRQATGKERELVAAISVSGGRTYYADSVKGRFTISRDNAMNTVYLQMKSLNPEDTAVYYCNAASPSYADFDYWGQGTQVTVSS | high polyreactivity |
| QVQLVESGGGLVQAGGSLRLSCAASGGTFRAYVMGWYRQAPGKERELVAAISRSGTRTYYADSVKGRFTISRDNAKNTVYLQMNSLKPEDTAVYYCAAQAGVYYDYEYWGQGTLVTVSS | high polyreactivity |
| QVQLVESGGGLVQAGGSLRLSCAASGSIFYRYAMGWSRPAPRKERELVAAISRSGGRTYYADSVKGRFTISRDISKKTVYLQMYSLKAEDTAVYYCADESNVGTDLGGDSWGQGTQVTVSS | high polyreactivity |
| QVQLVESGGGLVQAGGSLRLSCAASGSIFAPNAMGWYRQAPGKERELVAAITYGGGRTYYADSVKGRFTISRDNAKNTVYLQMNSLNPEDTAVYYCNALFSVRGYTWRSAAQDMDYWGQGTQVTVSS | high polyreactivity |
| QVQLVESGGGLVQAGGSLRLSCAASGRIFKLYAMGWYRQEPGKVRELVASITWGGGSTNYADSVKGRFTISRDNAKNTVYLQMNSLKQEDTAVYYCAAVYSKFAVFWEYDYWGQGTQVTVSS | low polyreactivity |
| QVQLVESGGGLVQAGGSLRLSCAASGFIFGAYSMGWYRQAPGKERELVADITQNSGSTYYADSVKGRFTISRDNAKNTVYLQMNSLKPEDTAVYYCNAPPGTFQWQGHSDYWGQGTQVTVSS | low polyreactivity |
| QVQLVESGGGLVQAGGSLRLSSAASGRIFFGNTMGWYRQAPGKERELVATIRKIGGRTYYADSVKGRFTISRDNAKNTVYLQMNSLKPEDTAVYYCATDFAPSYYPDRFDYWGQGTQVTVSS | low polyreactivity |
| QVHLVESGGGLVQAGGSLRLSCAASGSTFPRYSMGWYRQAPGTERELVAAITQSGGRTYYADSVKGSFTISRDNAKNTVYLQMNSRKPEDTAVYYFAAEDGLRGNRLYYWGHGTQVTVSS | high polyreactivity |
| QVQLVESGGGLVQAGGSLRLSCASSGRIFFKYAMGWYRQARGKERELLATITWRGSSTYYADSVKWRFTISRDNAKNTVYFQMNSLKPEDTAVYYCAAVAAWWYHQGVRYDYWGQGSQVTVSS | high polyreactivity |
| QVQLVESGGGLVQAGGSLRLSCAASGSTFNRYAMGWYRQAPGKERELVASISCSGGGSTYYADSVKGRFTISRDNAKNTVYLQMNSLKPEDTAVYYCAVSRDSYGGKGSVLYDYWGQGTQVTVSS | low polyreactivity |
| QVQLVESGGGLVQAGGSLRLSCAASGITFYRYAMGWYRQAPGKEREFVAAITWGSTYYADSVKGRFTISRDNAKNTVYLQMNSLTPEDTAVYYCNADWGGFWQHRELDSWGQGTQVTVSS | low polyreactivity |
| QVQLVESGGGLVQAGGSLRLSCAASGRIFTYYAMGWYRQAPGKERQLVAAISSGTGTNYADSVKGRFTNSRDNAKNTVYLQMNSLKPEDTAVYDCAADRQHVVVGYYYWGQGTQVTVSS | low polyreactivity |
| QVQLQESGSGLVQAGGSLRLSCAASGYISLGDNMGWYRQAPGKEREFVATISVGGITYYVDSVKGRFTISRDIAKNTVYLQMNSLKPEDTAVYYCADLDIYYFRYYYWGQGTQVTVSS | low polyreactivity |
| QVQLVESGGGLVQAGGSLRLSCAASGPTFYKYAMGWYRQAPGKEREFVATITRRGGSTYYADSVKGRFTISRDNAKNTVYLQMNSLNPEDTAVYYCAKEIFLKGPDGHDYWGQGTQVTVSS | low polyreactivity |
